Quick reference: half-life of the listed items.
experiment: Metabolic stability in mouse liver microsomes assessed as half-life; type: ADME, Microsome
Answer in min, number only, no unit symbol.

Use these answered entries as a reference point.
compound=CP(C)(=O)c1cc(F)cc2c(-c3nc(N[C@H]4CCCNC4)nc4ccsc34)c[nH]c12 numeric_result=15
compound="CP(C)(=O)c1c(C#N)ccc2c(-c3nc(NC4CNCC(F)(F)C4)nc4ccsc34)c[nH]c12 (configuration not stated)" numeric_result=21
compound=CC1(C)CC[C@H](Nc2ncc(C(F)(F)F)c(-c3c[nH]c4c(P(C)(C)=O)c(C#N)ccc34)n2)CN1 numeric_result=53
compound=CP(C)(=O)c1nccc2c(-c3nc(N[C@H]4CCCNC4)nc4ccsc34)c[nH]c12 numeric_result=18
compound=CP(C)(=O)c1cccc2c(-c3nc(N[C@H]4CCCNC4)nc4ccsc34)c[nH]c12 numeric_result=6
compound=CP(C)(=O)c1cccc2c(-c3nc(N[C@H]4CC[C@H](N)C4)nc4ccsc34)c[nH]c12 numeric_result=49
compound=CP(C)(=O)c1ccc(F)c2c(-c3nc(N[C@H]4CCCNC4)nc4ccsc34)c[nH]c12 numeric_result=14
compound=CP(C)(=O)c1c(C#N)ccc2c(-c3nc(N[C@H]4CCCNC4)nc4ccsc34)c[nH]c12 numeric_result=23

In: Given the compound `CN1CCC[C@H](Nc2nc(-c3c[nH]c4c(P(C)(C)=O)c(C#N)ccc34)c3sccc3n2)C1` , write its reported half-life.
Out: 13

In: Using known records, supply half-life for `C[C@@H]1CNC[C@@H](Nc2nc(-c3c[nH]c4c(P(C)(C)=O)c(C#N)ccc34)c3sccc3n2)C1`
Out: 15

In: Consider the compound `CP(C)(=O)c1c(C#N)ccc2c(-c3nc(N[C@@H]4CNC[C@@H](F)C4)nc4ccsc34)c[nH]c12` . State its measured half-life.
Out: 51
